biological target: UniProt Q02750
Sequence (Q02750 whole entry, species assumed): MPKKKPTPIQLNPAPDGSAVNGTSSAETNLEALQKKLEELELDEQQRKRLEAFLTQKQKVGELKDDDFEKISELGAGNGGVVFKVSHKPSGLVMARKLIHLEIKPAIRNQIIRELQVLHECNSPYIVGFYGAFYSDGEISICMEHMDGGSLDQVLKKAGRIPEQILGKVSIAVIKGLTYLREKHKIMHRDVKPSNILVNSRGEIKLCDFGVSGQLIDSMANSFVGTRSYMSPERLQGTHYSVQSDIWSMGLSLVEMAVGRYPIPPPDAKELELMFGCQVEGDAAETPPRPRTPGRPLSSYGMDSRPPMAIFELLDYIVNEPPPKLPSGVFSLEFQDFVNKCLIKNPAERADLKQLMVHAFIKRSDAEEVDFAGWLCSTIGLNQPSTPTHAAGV
pIC50: −log10 of the molar value.
Property label: pIC50

Prompt: Give its pIC50 value. Item: `C[C@H]1CN(C(=O)CC#N)[C@]12CCN(c1ncnc3[nH]ccc13)C2`
Response: < 6.00

====

target: UniProtKB P68400
Sequence (P68400 whole entry): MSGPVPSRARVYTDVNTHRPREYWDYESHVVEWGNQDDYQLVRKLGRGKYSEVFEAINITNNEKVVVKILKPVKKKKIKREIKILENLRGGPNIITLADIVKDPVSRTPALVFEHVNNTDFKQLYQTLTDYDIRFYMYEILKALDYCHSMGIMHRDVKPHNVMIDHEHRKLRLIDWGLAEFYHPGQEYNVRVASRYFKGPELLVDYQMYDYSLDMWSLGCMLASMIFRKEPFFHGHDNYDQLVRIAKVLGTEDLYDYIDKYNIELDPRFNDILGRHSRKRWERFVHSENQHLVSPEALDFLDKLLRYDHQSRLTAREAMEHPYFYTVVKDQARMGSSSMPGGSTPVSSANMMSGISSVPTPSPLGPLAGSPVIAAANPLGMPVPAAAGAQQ
Sequence (P67870 whole entry partner): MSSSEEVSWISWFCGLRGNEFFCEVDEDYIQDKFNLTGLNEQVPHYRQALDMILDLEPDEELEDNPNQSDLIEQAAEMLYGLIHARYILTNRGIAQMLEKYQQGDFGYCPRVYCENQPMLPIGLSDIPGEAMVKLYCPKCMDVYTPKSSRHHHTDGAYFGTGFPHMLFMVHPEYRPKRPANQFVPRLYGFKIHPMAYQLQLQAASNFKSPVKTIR
pIC50: −log10 of the molar value.
Property label: pIC50

Prompt: Query for UniProtKB P68400: what pIC50 does the record show for C[C@H]1CN(C(=O)CC#N)[C@]12CCN(c1ncnc3[nH]ccc13)C2 [JTE-052] ?
Response: < 6.00

====

molecular target: PKA (Homo sapiens)
Property label: IC50

Prompt: Consider the molecule `C[C@H]1CN(C(=O)CC#N)[C@]12CCN(c1ncnc3[nH]ccc13)C2` and give its measured IC50.
Response: > 1000 nM

Entry source: paper PMC4286029
